- MEASUREMENT TARGET: 6 × His-tagged FER–CD (Arabidopsis thaliana, UniProt Q9SCZ4 469-895)
- Sequence (Q9SCZ4 469-895): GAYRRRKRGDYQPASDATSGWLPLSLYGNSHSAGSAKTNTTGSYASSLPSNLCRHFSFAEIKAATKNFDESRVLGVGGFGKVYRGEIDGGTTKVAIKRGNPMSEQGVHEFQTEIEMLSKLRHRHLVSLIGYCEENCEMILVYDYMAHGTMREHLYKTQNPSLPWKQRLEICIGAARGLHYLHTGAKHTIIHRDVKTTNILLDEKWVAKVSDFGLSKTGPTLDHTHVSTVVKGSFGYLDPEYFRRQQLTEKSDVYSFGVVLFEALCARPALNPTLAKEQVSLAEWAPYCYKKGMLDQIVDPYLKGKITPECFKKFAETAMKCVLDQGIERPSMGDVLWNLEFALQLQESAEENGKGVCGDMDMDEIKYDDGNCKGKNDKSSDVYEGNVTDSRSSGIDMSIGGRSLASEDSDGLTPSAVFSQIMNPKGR
- PROTOCOL SUMMARY: pull-down

{"BINDER": "GST–CAR10 (natural protein) MDQKPLGLLTIHVKRGINLAIRDHRSSDPYIVLNVADQTLKTRVVKKNCNPVWNEEMTVAIKDPNVPIRLTVFDWDKFTGDDKMGDANIDIQPYLEALKMGMELLRLPNGCAIKRVQPSRHNCLSDESSIVWNNGKITQDLILRLNNVECGEIEIMLEWHEGAGCRGITSSSKGGGSSST", "binding result": "binds"}
{"BINDER": "GST–CAR6 (natural protein) MEKTEEEVEMKELVGLVRILVKRGIDLARRDALSSDPFVVITMGPQKLKSFTVKNNCNPEWNEELTLAIEDPNEPVKLMVYDKDTFTADDKMGDAQIDMKPFLDVHKLGLKELPHGKELKRIVPTRDNCLSEDSIIVSDNGKIVQDMILLLKNVECGKVEIQLEWLKNPGGSGL", "binding result": "binds"}
{"BINDER": "GST–CAR5 (natural protein) MIVSFLYFSSLFPTSLRKINLVAGEKHKDRRMKPSLMDSLLGLLRIRIKRGVNLAVRDLNSSDPYVVVKMAKQKLKTRVIYKNVNPEWNEDLTLSVSDPNLTVLLTVYDYDTFTKDDKMGDAEFGIKPFVNALKMHLHDLPSGTIVTTVQPSRDNCLAEESRVIWSDGKLVQDIVLRLRHVECGEVEAQLQWIDLPGKGL", "binding result": "binds"}
{"BINDER": "GST–CAR9 (natural protein) MEDKPLGILRVHVKRGINLAIRDATTSDPYVVITLANQKLKTRVINNNCNPVWNEQLTLSIKDVNDPIRLTVFDKDRFSGDDKMGDAEIDFRPFLEAHQMELDFQKLPNGCAIKRIRPGRTNCLAEESSITWSNGKIMQEMILRLKNVECGEVELMLEWTDGPGCKGLGREGSKKTPWMPTKRLD", "binding result": "binds"}
